Target: human recombinant COX2 (hCOX2) (UniProt P35354)
Sequence (P35354 1-604): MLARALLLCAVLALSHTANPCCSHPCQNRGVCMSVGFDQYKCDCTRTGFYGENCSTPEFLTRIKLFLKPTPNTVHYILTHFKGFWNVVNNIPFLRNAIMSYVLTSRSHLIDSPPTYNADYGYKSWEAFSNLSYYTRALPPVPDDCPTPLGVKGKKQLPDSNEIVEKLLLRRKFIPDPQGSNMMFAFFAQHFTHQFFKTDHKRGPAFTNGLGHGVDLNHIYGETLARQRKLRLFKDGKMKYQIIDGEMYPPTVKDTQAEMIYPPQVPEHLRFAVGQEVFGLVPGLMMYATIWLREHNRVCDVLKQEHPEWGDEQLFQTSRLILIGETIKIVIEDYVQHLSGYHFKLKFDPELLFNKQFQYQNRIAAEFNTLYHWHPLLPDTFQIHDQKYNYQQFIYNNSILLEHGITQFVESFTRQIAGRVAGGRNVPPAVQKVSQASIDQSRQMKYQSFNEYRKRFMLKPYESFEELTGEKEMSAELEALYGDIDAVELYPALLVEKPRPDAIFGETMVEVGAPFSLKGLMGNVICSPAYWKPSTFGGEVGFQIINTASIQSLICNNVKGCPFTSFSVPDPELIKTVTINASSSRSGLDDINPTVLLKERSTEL
Test: LCMS-based COX2 enzymatic inhibition assay (PGE2 quantification)
Format: biochemical
Parameters: COX2 2 minutes pge2/pge2d4 area ratio Avg; other: 2 minutes; readout pge2/pge2d4 area ratio; average; COX2 2 minutes pge2/pge2d4 area ratio Avg; LLE; average LLE; COX2 2 minutes pge2 area (counts) Avg; readout pge2 area (counts); other: 2 min; "ovine COX2 (oCOX2), human recombinant COX2 (hCOX2)"
Conditions: 2 minutes; readout pge2/pge2d4 area ratio; average LLE
readoutKind: COX2 2 minutes pge2/pge2d4 area ratio Avg. LLE

Some compounds with known COX2 2 minutes pge2/pge2d4 area ratio Avg. LLE results, for comparison:
CS(=O)(=O)c1ccc(-c2cncc(Oc3ccccc3)n2)cc1 | 4.451
Cn1ccc(CNc2cccc(-c3ccc(S(C)(=O)=O)cc3)n2)c1 | 3.847
CS(=O)(=O)c1ccc(-c2cccc(OCc3cccs3)n2)nc1 | 5.44
CS(=O)(=O)c1ccc(-c2nc(NCc3ccco3)ccc2F)cc1 | 3.092
CS(=O)(=O)c1ccc(-c2cccc(NCc3ccc[nH]3)n2)cc1 | 4.8
CS(=O)(=O)c1ccc(-c2ccc3ccn(-c4ccccc4)c3n2)cc1 | 2.102
CS(=O)(=O)c1ccc(-c2cnnc(NCc3cccs3)n2)cc1 | 5.0904
COc1ncc(-c2ccc(S(C)(=O)=O)cc2)nc1NCc1ccncc1 | 4.383
CS(=O)(=O)c1ccc(-c2cncc(OCC3CC3)n2)cc1 | 3.734
COc1ncc(-c2ccc(S(N)(=O)=O)cc2)nc1NCc1cccs1 | 5.595

(I) Cc1ccc(CNc2cccc(-c3ccc(S(C)(=O)=O)cc3)n2)o1
(II) CS(=O)(=O)c1ccc(-c2cccc(C[C@@H](O)c3cccs3)n2)cc1
### Prompt # returns the entry with the larger COX2 2 minutes pge2/pge2d4 area ratio Avg. LLE; inputs I and II Kindly state the label of the option you pick.
### Response I

---

test: Mouse Plasma Protein Stability (% Remaining); format: in vitro ADME; settings: average
readoutKind: Mouse Plasma Protein Stability % Remaining Avg (%)

Some compounds with known Mouse Plasma Protein Stability % Remaining Avg results, for comparison:
COc1ncc(NCc2ccoc2)nc1-c1ccc(S(C)(=O)=O)cc1 | 105.7
Cc1ccsc1CNc1cccc(-c2ccc(S(C)(=O)=O)cc2)n1 | 97.8

(a) CN(Cc1cccs1)c1cncc(-c2ccc(S(C)(=O)=O)cc2)n1
(b) C[C@H](Oc1cncc(-c2ccc(S(C)(=O)=O)cc2)n1)c1cccs1 (single isomer, unassigned)
### Prompt # returns the entry with the larger Mouse Plasma Protein Stability % Remaining Avg; inputs a and b Kindly state the label of the option you pick.
### Response a
(a: 109.5%, b: 36.7%)

Where do the numbers come from? From patent US20220348590A1.
